Value source: patent US7439242B2

Kindly state melting point for each of the entries shown.

// below: answered compounds
• CCOC(=O)c1cc(NS(=O)(=O)c2cccnc2)ccc1Oc1cncc(Cl)c1 [Example 25] = 120 to 122 °C
• CCOC(=O)c1cc(NS(=O)(=O)c2ccc(C(F)(F)F)cn2)ccc1Oc1cncc(Cl)c1 [Example 21] = 133 to 135 °C

Proceeding to the next compound to report its melting point.
Quickly give me recorded melting point for CCOC(=O)c1cc(NS(=O)(=O)c2ccc(Cl)nc2)ccc1Oc1cncc(Cl)c1 [Example 24]
166 to 168 °C

====

Kindly state melting point for each of the entries shown.

// below: answered molecules
- CCOC(=O)c1cc(NC(=O)c2ccc(Cl)cc2Cl)ccc1Oc1cncc(Cl)c1 [Example 41]: 125 to 127 °C
- O=S(=O)(Nc1ccccc1Oc1cncc(Cl)c1)c1ccc(Cl)cc1Cl [Example 32]: 168 to 170 °C
- O=S(=O)(Nc1cc(C(F)(F)F)ccc1Oc1cncc(Cl)c1)c1ccc(Cl)cc1Cl [Example 43]: 150 to 151.5 °C

Proceeding to the next molecule to report its melting point.
Quickly give me recorded melting point for CCOC(=O)c1cc(S(=O)(=O)Nc2ccc(Cl)cc2Cl)ccc1Oc1cncc(Cl)c1 [Example 40]
153 to 155 °C
